Origin of the recorded values: the supplement of paper PMC7877785

assay: self-splicing fitness, log relative to wild type (ln ratio); higher = more splicing; Tetrahymena group I intron in knt gene, E. coli kanamycin selection, DiMSum; sequences stand for … in CUCUCU…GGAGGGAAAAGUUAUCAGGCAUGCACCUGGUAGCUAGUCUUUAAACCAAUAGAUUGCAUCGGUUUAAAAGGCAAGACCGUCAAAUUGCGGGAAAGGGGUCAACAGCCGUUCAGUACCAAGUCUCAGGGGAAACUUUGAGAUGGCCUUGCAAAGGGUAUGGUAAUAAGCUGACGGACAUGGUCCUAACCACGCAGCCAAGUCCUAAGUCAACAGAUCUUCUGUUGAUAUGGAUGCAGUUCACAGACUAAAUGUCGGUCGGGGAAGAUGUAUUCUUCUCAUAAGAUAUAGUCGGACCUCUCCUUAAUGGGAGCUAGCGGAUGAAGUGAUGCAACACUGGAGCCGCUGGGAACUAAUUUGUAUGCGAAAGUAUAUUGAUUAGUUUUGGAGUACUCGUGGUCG; settings: 30 °C;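 further: selection with 25 µg/mL kanamycin versus none on LB agar overnight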
Lab note: class by self-splicing fitness (ln), see bottom: < -3; middle: ≥ -3 and < -1; top: ≥ -1

Examples from the recorded data:
Which band does AGCCAGCAAUAUUACGUUCC fall in?
middle

Subsequent entry: UUAGAGCAAUAUUACGAACG
top

What would you report for UACCAGCAAUAUUACGCGUU ?
middle

What do we get for UGCCAGCAAUAUUACGUAUG ?
middle

For AGACAGCAAUAUUACGUAUA then?
middle

New cases:
Into which category would you place CAAUAGCAAUAUUACGAGGG ?
bottom

Repeat for the following sequence: GUGCAGCAAUAUUACGCCUU
middle

GGAGAGCAAUAUUACGACGU , same question.
middle
